We begin with a simple list: items and their reported differential viability (reversal).
- protocol summary: reversal of MRP1-mediated doxorubicin resistance, pilot screen, H69AR cells, doxorubicin co-treatment (AID 601)
- condition info: H69AR cells + 2 uM doxorubicin, CellTiter-Glo, 72 h; at 10 µM; stronger effect = higher value
readout kind: differential viability (reversal) (%)

>>> quantitative_readout("CSc1nsc(SCC(=O)N2CCc3ccccc32)n1")
4.61
>>> quantitative_readout("Cc1cccc(N2CCN(C(=O)C3CCCN(S(=O)(=O)c4cnc[nH]4)C3)CC2C)c1 (centres undefined)")
6.94
>>> quantitative_readout("O=S(=O)(NCc1cn2ccccc2n1)c1cc(F)ccc1F")
9.41
>>> quantitative_readout("Cn1c(=O)c2c(nc(-n3ccnc3)n2C)n(C)c1=O")
8.81
>>> quantitative_readout("c1ccc(-c2cnc(CSc3ncnc4sccc34)o2)cc1")
14.7
>>> quantitative_readout("O=C1NC(=O)C(CC(=O)N(c2ccccc2)C2(C(=O)NC3CCCC3)CCCCC2)N1 (centres undefined)")
8.26
>>> quantitative_readout("CCCc1cc(=O)n2[nH]cnc2n1")
3.53
>>> quantitative_readout("COc1ccc(OC)c(S(=O)(=O)NCCO)c1")
14.5
>>> quantitative_readout("CC(=O)c1ccc(NC(=O)c2cc(CC(C)C)on2)cc1")
-1.95
>>> quantitative_readout("Cc1ccc(S(=O)(=O)C(C#N)c2nc3ccccc3nc2OC(C)C)cc1 (centres undefined)")
7.79
>>> quantitative_readout("Cc1ccc(Cn2nnc(C(=O)Nc3cccc(C)c3C)c2N)cc1")
-7.94
>>> quantitative_readout("O=C(c1cc2nc(-c3ccco3)cc(C(F)(F)F)n2n1)N1CCN(c2ccccn2)CC1")
-11.9
>>> quantitative_readout("CC(C)CNS(=O)(=O)c1ccc(CCC(=O)NCc2ccco2)cc1")
-3.21
>>> quantitative_readout("COc1ccc(N2C(=O)C3CCCN3C2c2ccc(F)cc2)cc1Cl (centres undefined)")
-1.33
>>> quantitative_readout("COc1ccc(NC(=O)CCc2ccccc2)cc1NC(=O)c1ccco1")
-20.6
>>> quantitative_readout("O=C(NCc1nnc(SCC(=O)N2CCC(Cc3ccccc3)CC2)o1)c1ccccc1F")
3.91
>>> quantitative_readout("ON=C1/C(=N\\O)CC2(C/C1=N/O)OCCO2")
-0.75
>>> quantitative_readout("O=S(=O)(c1cccc2cnccc12)N1CCCNCC1")
1.83
>>> quantitative_readout("CC1CCN(CCC(=O)Nc2ccc(Br)cc2)CC1")
8.88
>>> quantitative_readout("CC(=O)Nc1ccc2nc(-c3cccnc3)[nH]c2c1")
-11.3
>>> quantitative_readout("COc1ccc(-c2noc(COc3ccc(C)c(C)c3)n2)cc1OC")
-2.45
>>> quantitative_readout("Cn1c(=O)cc(OCC(=O)NCCCN2CCN(Cc3ccccc3)CC2)c2ccccc21")
17.9
>>> quantitative_readout("CCOc1ccc(-c2c(C#N)c(N)nc3c2c(=O)n(C)c(=O)n3C)cc1OC")
2.56
>>> quantitative_readout("CCCCn1c(=O)[nH]c(=O)c2c1nc(COc1ccc(C#N)cc1)n2CCC")
11.3

---

- protocol summary: HUVEC growth inhibition – cell-based, human, primary screen (AID 575);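 also: 100% = median of untreated cell wells with 0.1% DMSO on each plate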
- condition info: HUVEC proliferation, CellTiter-Glo luminescence, 72 h; at 10 µM; stronger effect = lower value
readout kind: viability (%)

>>> quantitative_readout("O=C(NC1CCCC1)C(NS(=O)(=O)c1cccc2nsnc12)c1ccccc1 (stereo not given)")
103
>>> quantitative_readout("COc1cc(C(Nc2ccc3c(c2)OCO3)C(=O)NC2CCCCC2)cc(OC)c1OC (stereo not given)")
94.2
>>> quantitative_readout("CC(C)CN(C(=O)c1ccc(=O)n(C)n1)c1nc2ccccc2s1")
107
>>> quantitative_readout("Cc1onc(-c2ccccc2)c1C(=O)N1CCCSC1=Nc1ccccc1")
76.9
>>> quantitative_readout("COc1cc(C(=O)Nc2cc(-c3ccccc3)[nH]n2)cc(OC)c1OC")
68.3
>>> quantitative_readout("CCc1ccc(CCC(=O)Nc2ccc(C)c(C)c2)o1")
102
>>> quantitative_readout("O=C(O)c1ccc(NC(=O)c2cccs2)cc1")
94.7
>>> quantitative_readout("Cc1ccc(CS(=O)(=O)Cc2ccc(C(=O)NCc3ccccn3)o2)cc1")
99.8
>>> quantitative_readout("CN(C)c1ccnc(NCc2ccccc2)c1C#N")
92.7
>>> quantitative_readout("CCOC(=O)C1(c2ccccc2)NC(c2ccc(N(C)C)cc2)C2C(=O)N(C)C(=O)C21 (stereo not given)")
104
>>> quantitative_readout("O=S(=O)(c1ccc(OCC(O)CN2CCc3ccccc3C2)cc1)N1CCOCC1 (stereo not given)")
98.2
>>> quantitative_readout("COc1ccc(N2CCN(c3oc(COc4ccccc4)nc3C#N)CC2)cc1")
84.1
>>> quantitative_readout("COc1ccc(NC(=O)CSc2nc3c(c(=O)n2-c2ccc(F)cc2)SCC3)c(OC)c1")
91.1
>>> quantitative_readout("NC(=O)CSCc1ccc(Br)cc1")
98.6
>>> quantitative_readout("S=C(c1ccc(N2CCOCC2)cc1)N1CCCCC1")
105
>>> quantitative_readout("CC(=O)OCC(=O)[C@@]12OC(C)(C)O[C@@H]1C[C@H]1[C@@H]3C[C@H](F)C4=CC(=O)C=C[C@]4(C)[C@@]3(F)[C@@H](O)C[C@@]12C")
62.1
>>> quantitative_readout("c1ccc(-c2cnc(CSc3ncnc4sccc34)o2)cc1")
90.7
>>> quantitative_readout("COc1ccc(CCNC(=O)CCN2C(=O)C3CC=CCC3C2=O)cc1OC (stereo not given)")
91.9
>>> quantitative_readout("COCCN1CN(S(=O)(=O)c2ccccc2)c2nc3ccccc3nc21")
109
>>> quantitative_readout("CCOC(=O)CSc1nc2sc(C)c(C)c2c(=O)[nH]1")
101
>>> quantitative_readout("Cc1ccc(NC(=O)c2ccco2)c(NC(=O)CN2C(=O)c3ccccc3C2=O)c1")
110
>>> quantitative_readout("COc1ccc2cc3cc(C(=O)NCC4CCCO4)oc3nc2c1 (stereo not given)")
84.8
>>> quantitative_readout("Cn1nnnc1SCC1=C(C(=O)O)N2C(=O)[C@@H](NC(=O)[C@H](O)c3ccccc3)[C@H]2SC1")
82.9
>>> quantitative_readout("Cc1onc(-c2ccccc2)c1C(=O)N1CCN(C(=O)c2ccco2)CC1")
101
>>> quantitative_readout("CC(=O)OCC(=O)[C@H]1CC[C@H]2[C@@H]3CCC4=CC(=O)CC[C@]4(C)[C@H]3CC[C@]12C")
39.2
>>> quantitative_readout("CCN(CC(=O)Nc1c(C(=O)OC)[nH]c2ccccc12)c1ccc2c(c1)OCO2")
67.8
>>> quantitative_readout("C[C@@H]1CCC[C@H](C)N1NC(=O)c1ccc(Cl)c(S(N)(=O)=O)c1")
88.5
>>> quantitative_readout("CCCCCc1nnc(NC(=O)Cc2cccs2)s1")
110
>>> quantitative_readout("Cc1ccc(C2C(C(=O)c3sc(C)nc3C)=C(O)C(=O)N2CCN(C)C)o1 (stereo not given)")
114
>>> quantitative_readout("COc1ccc(OC)c(N2Cc3cc(C)c(C)cc3C2)c1")
114
>>> quantitative_readout("O=C(Nc1ccc(NC(=O)c2ccco2)nc1)c1cccnc1")
121
>>> quantitative_readout("Cn1c(C(=O)OC(C(=O)NC2CCCC2)c2cccnc2)cc2sccc21 (stereo not given)")
110
>>> quantitative_readout("COc1cc(NC(=O)c2cccs2)cc(OC)c1")
95.4
>>> quantitative_readout("COCCCC/C(=N\\OCCN)c1ccc(C(F)(F)F)cc1")
55.7
>>> quantitative_readout("COc1ccc(CCN2C(=O)CC(N3CCOCC3)C2=O)cc1 (stereo not given)")
89.4
>>> quantitative_readout("O=C(Nc1ccc(N2CCOCC2)cc1)C1CC1")
109
>>> quantitative_readout("CC1CCCN(C(=O)CN2CCN(C(=O)c3ccco3)CC2)C1 (stereo not given)")
91.2
>>> quantitative_readout("CCOC(=O)C(C(C)=O)c1nc(C)nc2c1nnn2Cc1ccccc1Cl (stereo not given)")
71.7
>>> quantitative_readout("CCCCOC(=O)c1cccc(NC(=O)CC)c1")
91.1
>>> quantitative_readout("CCOC(=O)C1CCN(C(=O)COc2ccc(S(=O)(=O)NC(C)C)cc2Cl)CC1")
100
>>> quantitative_readout("CCCn1c(SCC(=O)Nc2ccccc2C(=O)OCC)nc2c1c(=O)n(C)c(=O)n2C")
102
>>> quantitative_readout("Cn1c(Cc2csc(N)n2)nnc1SCC(=O)NC1CCCCC1")
112
>>> quantitative_readout("CS(=O)(=O)N(Cc1ccccc1)c1ccc(C(=O)N2CCOCC2)cc1")
105
>>> quantitative_readout("COc1ccc(Cc2nc(-c3ccc(Br)cc3)no2)cc1")
92.8
>>> quantitative_readout("CC(=O)OC(C)C[N+](C)(C)C (stereo not given)")
86.7

The measured values listed here are drawn from PubChem BioAssay.
